TARGET ENTITY: CDK12/CyclinK (Homo sapiens (Human))
PROCEDURE TEXT: CDK12/CycK high ATP kinase assay (TR-FRET)
Format: biochemical
TEST SETTINGS: IC50 CDK12 at 2 mM ATP divided by CDK12 degradation DC50 (IF, CAL-120)
// (IC50 CDK12 high ATP) to (Degradation DC50 CDK12) ratio lookup, one value per entry

1) FC(F)(F)Oc1ccc(-c2cnc(CNc3nc(N4CCOCC4)nc4c(C(F)(F)F)cnn34)[nH]2)cc1 | <7.59E−3
2) FC(F)(F)c1ccc(-c2nnc(CNc3nc(N4CCOCC4)nc4c(C(F)(F)F)cnn34)[nH]2)cc1 | 0.74
3) FC(F)(F)Oc1ccc(-c2cnc(CNc3nc(N4CCOCC4)nn4c(C(F)(F)F)cnc34)[nH]2)cc1 | 9.34E−03

[Q] Fill in: (IC50 CDK12 high ATP) to (Degradation DC50 CDK12) ratio of FC(F)(F)c1ccc(-c2cnc(CNc3nc(N4CCOCC4)nn4c(C(F)(F)F)cnc34)[nH]2)cn1 is ___
[A] <3.09E−3

[Q] Fill in: (IC50 CDK12 high ATP) to (Degradation DC50 CDK12) ratio of Cc1ccc(-c2nnc(CNc3nc(N4CCOCC4)nn4c(C(F)(F)F)cnc34)[nH]2)cn1 is ___
[A] <0.16

[Q] Fill in: (IC50 CDK12 high ATP) to (Degradation DC50 CDK12) ratio of FC(F)(F)c1ccc(-c2cnc(CNc3nc(N4CCOCC4)nc4c(Br)cnn34)[nH]2)cc1 is ___
[A] <0.09

[Q] Fill in: (IC50 CDK12 high ATP) to (Degradation DC50 CDK12) ratio of FC(F)(F)Oc1ccc(-c2nnc(CNc3nc(N4CCOCC4)nc4c(C(F)(F)F)cnn34)[nH]2)cc1 is ___
[A] 0.26

[Q] Fill in: (IC50 CDK12 high ATP) to (Degradation DC50 CDK12) ratio of FC(F)(F)Oc1ccc(-c2cnc(CNc3nc(N4CCOCC4)nc4c(Br)cnn34)[nH]2)cc1 is ___
[A] <0.03

[Q] Fill in: (IC50 CDK12 high ATP) to (Degradation DC50 CDK12) ratio of FC(F)(F)Oc1ccc(-c2nnc(CNc3nc(N4CCOCC4)nc4c(Br)cnn34)[nH]2)cc1 is ___
[A] <0.27

###

TARGET ENTITY: CDK9/CyclinT1 (Homo sapiens (Human), UniProt P50750)
Sequence (P50750 whole entry): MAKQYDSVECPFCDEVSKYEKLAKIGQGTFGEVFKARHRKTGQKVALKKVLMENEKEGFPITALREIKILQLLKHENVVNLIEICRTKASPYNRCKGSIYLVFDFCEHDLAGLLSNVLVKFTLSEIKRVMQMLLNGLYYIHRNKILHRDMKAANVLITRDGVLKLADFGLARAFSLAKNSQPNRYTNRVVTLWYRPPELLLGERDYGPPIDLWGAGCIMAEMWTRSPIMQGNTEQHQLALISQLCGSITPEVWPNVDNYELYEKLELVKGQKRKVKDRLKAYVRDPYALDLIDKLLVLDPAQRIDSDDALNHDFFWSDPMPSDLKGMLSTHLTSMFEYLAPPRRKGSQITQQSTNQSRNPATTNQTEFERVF
Sequence (O60563 whole entry partner): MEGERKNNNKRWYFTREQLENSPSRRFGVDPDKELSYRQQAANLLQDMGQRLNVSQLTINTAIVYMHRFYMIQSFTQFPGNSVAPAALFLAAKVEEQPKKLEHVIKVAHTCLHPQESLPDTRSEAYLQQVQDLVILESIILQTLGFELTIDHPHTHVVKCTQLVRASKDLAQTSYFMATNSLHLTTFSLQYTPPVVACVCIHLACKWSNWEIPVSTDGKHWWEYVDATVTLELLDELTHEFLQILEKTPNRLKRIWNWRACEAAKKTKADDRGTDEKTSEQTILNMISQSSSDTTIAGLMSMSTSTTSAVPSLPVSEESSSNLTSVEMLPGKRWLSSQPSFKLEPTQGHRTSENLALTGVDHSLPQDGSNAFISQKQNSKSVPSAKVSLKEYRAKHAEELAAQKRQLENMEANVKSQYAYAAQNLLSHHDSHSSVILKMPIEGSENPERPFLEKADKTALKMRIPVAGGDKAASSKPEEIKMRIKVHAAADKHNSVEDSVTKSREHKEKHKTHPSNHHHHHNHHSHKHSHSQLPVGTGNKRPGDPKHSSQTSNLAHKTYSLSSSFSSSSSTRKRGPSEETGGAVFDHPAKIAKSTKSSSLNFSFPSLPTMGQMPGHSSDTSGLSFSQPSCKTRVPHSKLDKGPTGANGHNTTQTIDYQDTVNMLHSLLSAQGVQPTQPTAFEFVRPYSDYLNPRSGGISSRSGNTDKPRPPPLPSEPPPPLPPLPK
PROCEDURE TEXT: CDK9/CycT1 high ATP kinase assay (TR-FRET)
Format: biochemical
TEST SETTINGS: 2 mM ATP (high ATP); median; read-out: CDK9/CyclinT1, 2 mM ATP (high ATP), IC50 - [mol/l] (median)
READOUT: pIC50
Notebook: values listed as pIC50 are -log10 of the concentration (mol/L).

1. Cc1ccc(-c2nnc(CNc3nc(N4CCOCC4)nc4c(C(F)(F)F)cnn34)[nH]2)cn1 [Example 22] | 5.72
2. FC(F)(F)c1ccc(-c2cnc(CNc3nc(N4CCOCC4)nc4c(Br)cnn34)[nH]2)cc1 [Example 3] | 4.81

From here, focus on the item given below.
[Q] Fill in: pIC50 of Cc1ccc(-c2nnc(CNc3nc(N4CCOCC4)nn4c(C(F)(F)F)cnc34)[nH]2)cn1 [Example 23] is ___
[A] 6.20

###

// pIC50 lookup, one value per entry
TARGET ENTITY: CDK2/CyclinE (Homo sapiens (Human))
PROCEDURE TEXT: CDK2/CycE kinase assay (TR-FRET)
TEST SETTINGS: 2 mM ATP (high ATP); median; read-out: CDK2/CyclinE, 2 mM ATP (high ATP), IC50 - [mol/l] (median)
pIC50: −log10 of the molar value.

Below, each entry is followed by its recorded pIC50 result.
1. FC(F)(F)Oc1ccc(-c2cnc(CNc3nc(N4CCOCC4)nc4c(Br)cnn34)[nH]2)cc1 | 4.98
2. FC(F)(F)Oc1ccc(-c2nnc(CNc3nc(N4CCOCC4)nn4c(C(F)(F)F)cnc34)[nH]2)cn1 | < 4.70
3. Cc1ccc(-c2nnc(CNc3nc(N4CCOCC4)nc4c(C(F)(F)F)cnn34)[nH]2)cn1 | 5.51

From here, focus on the item given below.
[Q] Fill in: pIC50 of FC(F)(F)Oc1ccc(-c2nnc(CNc3nc(N4CCOCC4)nc4c(Br)cnn34)[nH]2)cc1 is ___
[A] 4.95

###

// (IC50 CDK12 high ATP) to (Degradation DC50 CDK12) ratio lookup, one value per entry
TARGET ENTITY: CDK12/CyclinK (Homo sapiens (Human), UniProt Q9NYV4)
Sequence (Q9NYV4 other isoform, or with tags, fused parts or gaps): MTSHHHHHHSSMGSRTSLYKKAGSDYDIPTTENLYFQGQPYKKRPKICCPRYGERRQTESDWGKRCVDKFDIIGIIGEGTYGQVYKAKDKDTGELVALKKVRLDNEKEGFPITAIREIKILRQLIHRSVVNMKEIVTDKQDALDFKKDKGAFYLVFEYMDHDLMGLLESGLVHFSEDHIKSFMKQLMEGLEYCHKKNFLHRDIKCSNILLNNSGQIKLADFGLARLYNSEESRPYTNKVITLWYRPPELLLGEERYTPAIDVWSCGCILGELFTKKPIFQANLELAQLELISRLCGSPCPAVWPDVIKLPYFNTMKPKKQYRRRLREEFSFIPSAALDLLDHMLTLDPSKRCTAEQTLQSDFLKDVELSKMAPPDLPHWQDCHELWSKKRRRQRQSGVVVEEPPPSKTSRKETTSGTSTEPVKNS
Sequence (O75909 other isoform, or with tags, fused parts or gaps partner): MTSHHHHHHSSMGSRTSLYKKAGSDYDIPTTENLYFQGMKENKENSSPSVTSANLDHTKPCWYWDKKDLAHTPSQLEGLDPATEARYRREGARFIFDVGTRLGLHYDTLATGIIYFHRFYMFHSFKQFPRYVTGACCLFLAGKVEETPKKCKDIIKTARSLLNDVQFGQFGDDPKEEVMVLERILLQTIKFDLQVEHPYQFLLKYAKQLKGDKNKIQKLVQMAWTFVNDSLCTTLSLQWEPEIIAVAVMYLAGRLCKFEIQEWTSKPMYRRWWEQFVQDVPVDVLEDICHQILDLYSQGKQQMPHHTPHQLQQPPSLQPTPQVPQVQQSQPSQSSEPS
PROCEDURE TEXT: CDK12/CycK high ATP kinase assay (TR-FRET)
Format: biochemical
TEST SETTINGS: IC50 CDK12 at 2 mM ATP divided by CDK12 degradation DC50 (IF, CAL-120)

1) FC(F)(F)c1ccc(-c2cnc(CNc3nc(N4CCOCC4)nc4c(C(F)(F)F)cnn34)[nH]2)cc1 | 9.69E−03
2) FC(F)(F)c1ccc(-c2nnc(CNc3nc(N4CCOCC4)nn4c(C(F)(F)F)cnc34)[nH]2)cn1 | <0.01
3) FC(F)(F)c1ccc(-c2nnc(CNc3nc(N4CCOCC4)nc4c(Br)cnn34)[nH]2)cc1 | 0.77
4) COc1ccc(-c2nnc(CNc3nc(N4CCOCC4)nc4c(C(F)(F)F)cnn34)[nH]2)cn1 | <0.53
5) Cc1ccc(-c2nnc(CNc3nc(N4CCOCC4)nc4c(C(F)(F)F)cnn34)[nH]2)cn1 | <0.49

[Q] Fill in: (IC50 CDK12 high ATP) to (Degradation DC50 CDK12) ratio of FC(F)(F)c1ccc(-c2nnc(CNc3nc(N4CCOCC4)nn4c(C(F)(F)F)cnc34)[nH]2)cc1 is ___
[A] 0.04

[Q] Fill in: (IC50 CDK12 high ATP) to (Degradation DC50 CDK12) ratio of FC(F)(F)c1ccc(-c2cnc(CNc3nc(N4CCOCC4)nn4c(C(F)(F)F)cnc34)[nH]2)cc1 is ___
[A] 0.04

###

// IC50 lookup, one value per entry
Tested on: BT474
PROCEDURE TEXT: Proliferation assay: cell line panel, BT474
Assay type: cell-based
TEST SETTINGS: Homo sapiens, BT-474, 96 h, breast cancer, HER2 positive, 4 days, read-out: Result Category, IC50 (mean)

1) FC(F)(F)Oc1ccc(-c2cnc(CNc3nc(N4CCOCC4)nn4c(C(F)(F)F)cnc34)[nH]2)cc1 | 30 to 100 nM

From here, focus on the item given below.
[Q] Fill in: IC50 of FC(F)(F)c1ccc(-c2cnc(CNc3nc(N4CCOCC4)nn4c(C(F)(F)F)cnc34)[nH]2)cc1 is ___
[A] 30 to 100 nM

###

TARGET ENTITY: CDK12/CyclinK (Homo sapiens (Human), UniProt Q9NYV4)
PROCEDURE TEXT: CDK12/CycK high ATP kinase assay (TR-FRET)
TEST SETTINGS: 2 mM ATP (high ATP); median; read-out: CDK12/CyclinK, 2 mM ATP (high ATP), IC50 - [mol/l] (median)
// pIC50 lookup, one value per entry
Notebook: values listed as pIC50 are -log10 of the concentration (mol/L).

Below, each entry is followed by its recorded pIC50 result.
1. FC(F)(F)c1ccc(-c2cnc(CNc3nc(N4CCOCC4)nc4c(Br)cnn34)[nH]2)cc1 [Example 3] | 6.57
2. FC(F)(F)c1ccc(-c2nnc(CNc3nc(N4CCOCC4)nc4c(C(F)(F)F)cnn34)[nH]2)cc1 [Example 6] | 6.13
3. FC(F)(F)Oc1ccc(-c2nnc(CNc3nc(N4CCOCC4)nn4c(C(F)(F)F)cnc34)[nH]2)cn1 [Example 19] | 8.38
4. FC(F)(F)c1ccc(-c2cnc(CNc3nc(N4CCOCC4)nn4c(C(F)(F)F)cnc34)[nH]2)cn1 [Example 12] | 8.51
5. FC(F)(F)c1ccc(-c2nnc(CNc3nc(N4CCOCC4)nc4c(Br)cnn34)[nH]2)cc1 [Example 1] | 5.74
6. Cc1ccc(-c2nnc(CNc3nc(N4CCOCC4)nc4c(C(F)(F)F)cnn34)[nH]2)cn1 [Example 22] | 6.31
7. FC(F)(F)Oc1ccc(-c2cnc(CNc3nc(N4CCOCC4)nn4c(C(F)(F)F)cnc34)[nH]2)cc1 [Example 8] | 8.08
8. FC(F)(F)Oc1ccc(-c2cnc(CNc3nc(N4CCOCC4)nc4c(C(F)(F)F)cnn34)[nH]2)cc1 [Example 10] | 8.12
9. FC(F)(F)Oc1ccc(-c2nnc(CNc3nc(N4CCOCC4)nc4c(C(F)(F)F)cnn34)[nH]2)cc1 [Example 5] | 6.58
10. FC(F)(F)c1ccc(-c2cnc(CNc3nc(N4CCOCC4)nn4c(C(F)(F)F)cnc34)[nH]2)cc1 [Example 7] | 7.58

[Q] Fill in: pIC50 of FC(F)(F)Oc1ccc(-c2nnc(CNc3nc(N4CCOCC4)nc4c(Br)cnn34)[nH]2)cc1 [Example 2] is ___
[A] 6.12

[Q] Fill in: pIC50 of FC(F)(F)c1ccc(-c2nnc(CNc3nc(N4CCOCC4)nn4c(C(F)(F)F)cnc34)[nH]2)cn1 [Example 20] is ___
[A] 7.92

[Q] Fill in: pIC50 of FC(F)(F)c1ccc(-c2nnc(CNc3nc(N4CCOCC4)nn4c(C(F)(F)F)cnc34)[nH]2)cc1 [Example 11] is ___
[A] 7.49
